Assay: pKa analysis by pH-metric triple titration
Format: physicochemical
Conditions: aqueous solution, Type Acid, […] C., […] KCl, read-out: pKa

{"Compound": "C=CCN1CC[C@]23c4c5ccc(O)c4O[C@H]2C(=O)CC[C@@]3(O)[C@H]1C5 [Naloxone, reference compound]", "pKa": 9.15}
